Every entry's value here was drawn from the supplement of paper PMC7877785.

# METHOD_NOTES: self-splicing fitness, log relative to wild type (ln ratio); higher = more splicing; Tetrahymena group I intron in knt gene, E. coli kanamycin selection, DiMSum; sequences stand for … in CUCUCU…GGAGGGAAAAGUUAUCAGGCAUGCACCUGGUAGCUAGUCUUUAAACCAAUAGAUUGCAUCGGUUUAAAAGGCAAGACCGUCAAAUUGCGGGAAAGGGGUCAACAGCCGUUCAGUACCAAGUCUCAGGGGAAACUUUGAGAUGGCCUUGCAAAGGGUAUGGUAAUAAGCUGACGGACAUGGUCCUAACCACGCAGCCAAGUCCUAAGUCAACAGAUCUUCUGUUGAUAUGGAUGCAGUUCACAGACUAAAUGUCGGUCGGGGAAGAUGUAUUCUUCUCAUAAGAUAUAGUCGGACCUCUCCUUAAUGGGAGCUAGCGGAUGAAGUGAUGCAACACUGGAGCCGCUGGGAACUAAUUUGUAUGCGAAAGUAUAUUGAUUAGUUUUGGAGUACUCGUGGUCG;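 note: selection with 25 µg/mL kanamycin versus none on LB agar overnight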
# EXPERIMENTAL_CONTEXT: 30 °C
For each entry below, report its self-splicing fitness (ln) value.
A bare number is all that is needed in reply.

Suppose we examine the sequence CUUGAGCAAUAUUACGUAAC ; what self-splicing fitness (ln) value has been reported?
-1.67

Give the measured self-splicing fitness (ln) of GCCCAGCAAUAUUACGUAGU .
-0.118

Need self-splicing fitness (ln), item GGACAGCAAUAUUACGCUUG
-1.45

Request the reported self-splicing fitness (ln) associated with GGAUAGCAAUAUUACGACUG
-0.737

// lookup self-splicing fitness (ln) for AUUUAGCAAUAUUACGUCGG
-3.82

What self-splicing fitness (ln) value was documented for this sequence, CUCCAGCAAUAUUACGCGAC ?
-3.79

I'd like to know its self-splicing fitness (ln). The sequence in question is UGGUAGCAAUAUUACGGCCU
-0.807

Fill in: self-splicing fitness (ln) of GUUAAGCAAUAUUACGCCAG is ___
-3.1

If you can, please state the reported self-splicing fitness (ln) value of GACAAGCAAUAUUACGUUUA .
-1.66

Recorded self-splicing fitness (ln) of GGAGAGCAAUAUUACGAUGG , please.
-4.43

Which measured self-splicing fitness (ln) value corresponds to CUCGAGCAAUAUUACGGUUA ?
-2.71

Could you tell me which self-splicing fitness (ln) is on file for AACGAGCAAUAUUACGGGUA ?
-2.96

self-splicing fitness (ln) for UAUUAGCAAUAUUACGUAUC ?
-3.31

Fill blank: measured self-splicing fitness (ln) of the sequence CACUAGCAAUAUUACGUUGU is ____.
-4.22

Entry under review: UAUCAGCAAUAUUACGGCAA . Reported self-splicing fitness (ln)?
-0.306

If you can, please state the reported self-splicing fitness (ln) value of GUCCAGCAAUAUUACGCGAG .
-0.816
